# System: Influenza A (H3N2) Beijing/32/92
# Procedure Summary: microbe, parasite or virus in culture
# Format: cell-based, influenza A virus
# Condition Label: Influenza A virus, MDCK; Influenza A (H3N2) Beijing/32/92; read-out: Neutral Red EC50
Readout Name: EC50 (µg/mL)
Give the number; µg/mL is assumed, so skip it.

O=C1CC(c2ccc(O)cc2)Oc2cc(O)c(-c3c(O)cc(O)c4c3OC(c3ccc(O)cc3)CC4=O)c(O)c21 (stereo not drawn) [Rhusflavanone (9), rhusflavanone] has a reported EC50 of 31

O=c1cc(-c2ccc(O)c(-c3c(O)cc(O)c4c(=O)cc(-c5ccc(O)cc5)oc34)c2)oc2cc(O)cc(O)c12 [Amentoflavone (1), amentoflavone] has a reported EC50 of 6.5

---

# Procedure Summary: in vitro
# Condition Label: dog, Neutral Red IC50 (cytotoxic), Influenza A (H1N1) test
Please respond with reported IC50 for every item in the list.

O=C1CC(c2ccc(O)cc2)Oc2cc(O)c(-c3c(O)cc4c(c3O)C(=O)CC(c3ccc(O)cc3)O4)c(O)c21 (stereo not drawn) has a reported IC50 of 5 µg/mL

`O=c1cc(-c2ccc(O)c(-c3c(O)cc4oc(-c5ccc(O)cc5)cc(=O)c4c3O)c2)oc2cc(O)cc(O)c12` has a reported IC50 of ~32 µg/mL

`O=c1cc(-c2ccc(O)c(-c3c(O)cc(O)c4c(=O)cc(-c5ccc(O)cc5)oc34)c2)oc2cc(O)cc(O)c12` has a reported IC50 of > 100 µg/mL

---

# System Tested: HIV-1 RT (Human immunodeficiency virus type 1 group M subtype B)
# Construct: made in house; host or cells: Escherichia coli
# Procedure Summary: Anti-HIV-1 RT assay (recombinant enzyme)
# Type: biochemical
# Condition Label: read-out: Anti-HIV-1 RT % Inhibition at 200 μg/ml
Please respond with reported inhibition at 200 µg/mL for every item in the list.
Give the number; % is assumed, so skip it.

O=c1cc(-c2ccc(OS(=O)(=O)O)c(-c3c(OS(=O)(=O)O)cc4oc(-c5ccc(OS(=O)(=O)O)cc5)cc(=O)c4c3O)c2)oc2cc(OS(=O)(=O)O)cc(O)c12 [Robustaflavone tetrasulfate (17)] has a reported inhibition at 200 µg/mL of 95.5

O=c1cc(-c2ccc(O)c(-c3c(O)cc(O)c4c(=O)cc(-c5ccc(O)cc5)oc34)c2)oc2cc(O)cc(O)c12 [Amentoflavone (1), amentoflavone] has a reported inhibition at 200 µg/mL of 97.3

O=c1cc(-c2ccc(Oc3c(O)cc4oc(-c5ccc(O)cc5)cc(=O)c4c3O)cc2)oc2cc(O)cc(O)c12 [Hinokiflavone (4), hinokiflavone] has a reported inhibition at 200 µg/mL of 89

COc1ccc(-c2cc(=O)c3c(OC)cc(OC)c(C4C(=O)c5c(OC)cc(OC)cc5OC4c4ccc(OC)cc4)c3o2)cc1 (stereo not drawn) [Volkensiflavone hexamethyl ether (6), volkensiflavone hexamethyl ether] has a reported inhibition at 200 µg/mL of 0

O=C1c2c(O)cc(O)cc2O[C@@H](c2ccc(O)cc2)[C@@H]1c1c(O)cc(O)c2c(=O)cc(-c3ccc(O)cc3)oc12 [Volkensiflavone (5), volkensiflavone] has a reported inhibition at 200 µg/mL of 45.3

O=C1CC(c2ccc(O)cc2)Oc2cc(O)c(-c3c(O)cc(O)c4c3OC(c3ccc(O)cc3)CC4=O)c(O)c21 (stereo not drawn) [Rhusflavanone (9), rhusflavanone] has a reported inhibition at 200 µg/mL of 14.1

O=C1c2c(O)cc(O)cc2O[C@H](c2ccc(O)cc2)[C@H]1c1c(O)cc(O)c2c(=O)cc(-c3ccc(O)c(O)c3)oc12 [Morelloflavone(7), morelloflavone] has a reported inhibition at 200 µg/mL of 99.2

O=C1CC(c2ccc(O)cc2)Oc2cc(O)c(-c3c(O)cc4c(c3O)C(=O)CC(c3ccc(O)cc3)O4)c(O)c21 (stereo not drawn) [Succedaneaflavanone (11), succedaneaflavanone] has a reported inhibition at 200 µg/mL of 22.1

O=C1CC(c2ccc(O)cc2)Oc2cc(O)cc(O)c21 (stereo not drawn) [Naringenin, 4′,5,7-trihydroxyflavanone, reference compound] has a reported inhibition at 200 µg/mL of 34.9

O=c1cc(-c2ccc(O)cc2)oc2cc(O)cc(O)c12 [Apigeriin, 4′,5,7-trihydroxyflavone, reference compound] has a reported inhibition at 200 µg/mL of 72

O=c1cc(-c2ccc(O)c(-c3c(O)cc4oc(-c5ccc(O)cc5)cc(=O)c4c3O)c2)oc2cc(O)cc(O)c12 [Robustaflavone (3), robustaflavone] has a reported inhibition at 200 µg/mL of 91.4

O=C1CC(c2ccc(O)cc2)Oc2c1c(O)cc(O)c2C1C(=O)c2c(O)cc(O)cc2OC1c1ccc(O)cc1 (stereo not drawn) [GB-1a(13), GB-1a] has a reported inhibition at 200 µg/mL of 86
